Tested on: EKVX NSCLC
protocol details: NCI tumour cell line growth inhibition, 48 h
measured attribute: TGI

In the examples that follow, each entry is paired with its recorded TGI.
[[record]]
compound = "O=C1OC(c2ccccc2)=N/C1=C\\c1ccc(F)cc1"
measured_attribute = "TGI"
measured = "> 100 µM"

[[record]]
compound = "Cn1c(-c2c(N)n(Cc3ccc(C(F)(F)F)cc3)c3nc(C#N)c(C#N)nc23)nc2ccccc21"
measured_attribute = "TGI"
measured = "> 100 µM"

[[record]]
compound = "CCC[C@H](N[C@H]1CCc2cc(F)cc(F)c2C1)C(=O)Nc1cn(C(C)(C)CNCC(C)(C)C)cn1"
measured_attribute = "TGI"
measured = "> 100 µM"

[[record]]
compound = "CC(=O)NC1=C(C)C(=O)c2c(nc3n2CCC3OC(=O)c2ccccc2)C1=O (stereo not given)"
measured_attribute = "TGI"
measured = "3.01 µM"

[[record]]
compound = "CC(C)(C)OC(=O)NCCCCCCC(=O)Cc1ccccc1"
measured_attribute = "TGI"
measured = "> 100 µM"

[[record]]
compound = "COc1ccc(OC)c(NC(=O)c2c(Cl)c(Cl)c(Cl)c(Cl)c2-c2nc3ccccc3[nH]2)c1"
measured_attribute = "TGI"
measured = "> 100 µM"


Value sought for every listed compound: TGI.
1. COc1ccc(C(O)c2cc3c(N)c(C(=O)Nc4cccc(OC)c4)sc3nc2C)cc1 (stereo not given)
2. O=C1Nc2ccccc2C1(c1c[nH]c2ccccc12)c1c[nH]c2ccccc12
3. C=C=C(C)C(=O)N(C(C)C)C(C)C
4. CC(C)(C)c1ccc2c(c1)C(=O)c1ccccc1C2=O

Reply |
> 50 µM
3.84 µM
> 100 µM
75.9 µM
